Entries annotated with measured 50% Neutralization ARPE
target: hCMV UL128 + UL130 + UL131A (co-expressed in HEK293T cells) (human cytomegalovirus, UniProt P16837 28-171; P16772 1-214; F5HET4 19-129); assay: cell-based or functional assay
Sequence (P16837 28-171 limits assumed, one chain of several): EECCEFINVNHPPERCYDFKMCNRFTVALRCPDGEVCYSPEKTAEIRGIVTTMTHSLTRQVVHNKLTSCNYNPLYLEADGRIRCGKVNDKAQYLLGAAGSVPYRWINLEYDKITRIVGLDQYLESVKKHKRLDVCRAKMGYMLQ

>  <binder>
8J16 (antibody, V domains shown) VH: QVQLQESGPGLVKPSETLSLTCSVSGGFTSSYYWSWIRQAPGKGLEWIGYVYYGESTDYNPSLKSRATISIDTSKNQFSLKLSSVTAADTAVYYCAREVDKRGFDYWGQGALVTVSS VL: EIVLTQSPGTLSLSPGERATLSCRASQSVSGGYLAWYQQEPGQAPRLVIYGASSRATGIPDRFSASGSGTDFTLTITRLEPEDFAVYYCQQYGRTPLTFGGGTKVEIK

>  <readout_name>
50% Neutralization ARPE

>  <result>
< 0.001 µg/mL

$$$$
>  <binder>
7B13 (antibody, V domains shown) VH: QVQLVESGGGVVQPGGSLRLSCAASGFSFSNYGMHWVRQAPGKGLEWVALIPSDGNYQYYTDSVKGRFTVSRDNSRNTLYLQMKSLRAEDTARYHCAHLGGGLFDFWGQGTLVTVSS VL: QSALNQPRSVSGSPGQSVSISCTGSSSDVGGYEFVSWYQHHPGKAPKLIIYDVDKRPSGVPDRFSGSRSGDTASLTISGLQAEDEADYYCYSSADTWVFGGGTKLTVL

>  <readout_name>
50% Neutralization ARPE

>  <result>
< 0.001 µg/mL

$$$$
>  <binder>
2C12 (antibody, V domains shown) VH: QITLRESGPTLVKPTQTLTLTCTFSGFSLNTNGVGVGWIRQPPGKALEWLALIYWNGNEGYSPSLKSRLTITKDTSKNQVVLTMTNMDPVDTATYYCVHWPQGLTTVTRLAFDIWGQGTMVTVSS VL: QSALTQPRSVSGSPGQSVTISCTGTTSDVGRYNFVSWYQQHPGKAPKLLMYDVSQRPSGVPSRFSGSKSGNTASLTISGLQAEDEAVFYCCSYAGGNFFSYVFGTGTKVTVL

>  <readout_name>
50% Neutralization ARPE

>  <result>
< 0.01 µg/mL

$$$$

Provide measured 50% Neutralization ARPE value, entry: 7I13 (antibody, V domains shown) VH: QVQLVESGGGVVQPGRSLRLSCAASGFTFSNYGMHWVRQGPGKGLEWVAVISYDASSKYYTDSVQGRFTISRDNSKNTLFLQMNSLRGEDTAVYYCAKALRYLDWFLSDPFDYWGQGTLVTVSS VL: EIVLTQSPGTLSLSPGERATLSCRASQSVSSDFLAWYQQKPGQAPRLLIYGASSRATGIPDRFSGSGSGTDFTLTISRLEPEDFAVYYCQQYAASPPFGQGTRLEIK
< 0.01 µg/mL
